# subject of test: Neutrophil elastase (Homo sapiens)
# assay notes: Inhibition of human neutrophil elastase
Calls of active or inactive are those of the source. The calls are words filed in the database; no cut-off is given here.
Log the outcome using a class from active, inactive

compound	subject of test	label value
CCN1CN(Cc2cn(CC(=O)c3cccs3)nn2)S(=O)(=O)N1CC	Neutrophil elastase (Homo sapiens)	inactive
CCN1CN(Cc2cccc(NC(=O)CCOC)c2)S(=O)(=O)N1CC	Neutrophil elastase (Homo sapiens)	inactive
CCN1CN(Cc2cn(CC(=O)c3ccccc3F)nn2)S(=O)(=O)N1CC	Neutrophil elastase (Homo sapiens)	inactive
CCN1CN(Cc2cccc(NC(=O)c3cccc(OC)c3)c2)S(=O)(=O)N1CC	Neutrophil elastase (Homo sapiens)	inactive
CCN1CN(Cc2cccc(NC(=O)NCCc3ccccc3)c2)S(=O)(=O)N1CC	Neutrophil elastase (Homo sapiens)	inactive

Request: Write down the call the test reported for this compound. Item: "CCN1CN(Cc2cccc(NC(=O)c3cccc(Oc4ccccc4)c3)c2)S(=O)(=O)N1CC"
Response: inactive

Request: Write down the call the test reported for this compound. Item: "CCN1CN(Cc2cccc(NC(=O)c3ccccc3)c2)S(=O)(=O)N1CC"
Response: inactive

Request: Write down the call the test reported for this compound. Item: CCN1C(=O)N(C(Cc2ccccc2)C(=O)Nc2ccccc2NC(=O)OCC(C)C)S(=O)(=O)N1CC (stereo not drawn)
Response: active
